Where do these numbers come from? They come from ChEMBL document CHEMBL1208679.

- Experimental protocol: Drug level in rat plasma at 30 mg/kg, ip after 2 hrs
- Assay type: ADME, organism-based
- Design: dose 30 mg/kg, route intraperitoneal
- Measurement parameters: read-out: Drug uptake
Observable: concentration at 2 h (nM)
The figure you give is taken to be in nM; do not add the unit.

Query: Quick one: concentration at 2 h of CCC(C)(CCN1CCOCC1)N(Cc1cc2ccccc2n(C)c1=O)C(=O)C1CCCCC1 (single isomer, unassigned; enantiomer 1) ?
Result: 2300

* * *

- Target or system: MDR1 (ABCB1, P-glycoprotein) (Homo sapiens)
- Sequence (P08183 whole entry): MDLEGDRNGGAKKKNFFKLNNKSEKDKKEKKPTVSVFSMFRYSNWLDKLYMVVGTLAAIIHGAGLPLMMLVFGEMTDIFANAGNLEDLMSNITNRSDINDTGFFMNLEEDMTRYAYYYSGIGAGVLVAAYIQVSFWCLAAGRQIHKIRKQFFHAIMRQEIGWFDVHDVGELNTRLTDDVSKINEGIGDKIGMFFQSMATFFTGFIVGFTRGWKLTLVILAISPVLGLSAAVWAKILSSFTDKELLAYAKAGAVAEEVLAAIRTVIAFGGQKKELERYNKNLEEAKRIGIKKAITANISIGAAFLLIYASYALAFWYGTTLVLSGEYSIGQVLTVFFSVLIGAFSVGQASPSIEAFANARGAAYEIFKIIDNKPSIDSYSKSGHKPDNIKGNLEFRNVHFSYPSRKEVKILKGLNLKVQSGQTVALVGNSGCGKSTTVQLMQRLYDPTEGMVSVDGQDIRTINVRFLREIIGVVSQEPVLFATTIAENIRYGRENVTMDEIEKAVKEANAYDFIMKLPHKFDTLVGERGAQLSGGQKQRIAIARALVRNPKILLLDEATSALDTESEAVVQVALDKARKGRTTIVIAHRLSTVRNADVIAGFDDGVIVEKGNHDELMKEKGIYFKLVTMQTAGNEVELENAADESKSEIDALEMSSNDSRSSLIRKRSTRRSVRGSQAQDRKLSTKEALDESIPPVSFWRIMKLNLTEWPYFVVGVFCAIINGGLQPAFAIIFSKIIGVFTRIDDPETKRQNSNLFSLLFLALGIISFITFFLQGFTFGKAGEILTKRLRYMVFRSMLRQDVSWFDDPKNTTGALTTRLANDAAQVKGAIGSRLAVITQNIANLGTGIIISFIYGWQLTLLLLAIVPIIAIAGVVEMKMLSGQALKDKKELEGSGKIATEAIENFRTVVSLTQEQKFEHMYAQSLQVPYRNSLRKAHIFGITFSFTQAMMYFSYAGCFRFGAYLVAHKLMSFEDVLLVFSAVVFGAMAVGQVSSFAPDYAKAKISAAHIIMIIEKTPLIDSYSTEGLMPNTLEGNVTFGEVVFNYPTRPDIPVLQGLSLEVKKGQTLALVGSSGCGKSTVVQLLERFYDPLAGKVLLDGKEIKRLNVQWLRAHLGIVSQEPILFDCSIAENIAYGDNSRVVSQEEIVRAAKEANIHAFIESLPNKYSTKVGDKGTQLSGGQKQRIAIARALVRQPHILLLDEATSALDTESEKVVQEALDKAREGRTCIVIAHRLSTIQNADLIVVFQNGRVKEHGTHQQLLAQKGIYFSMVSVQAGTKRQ
- Experimental protocol: Permeability of the compound assessed as MDR1-passive permeability by cell based assay
- Measurement parameters: not told; read-out: permeability
The entries below come with measured Papp values attached.
Give the value in ×10⁻⁶ cm/s but do not write ×10⁻⁶ cm/s after it.

Check out these entries, answers already filled in.
{"columns": ["Molecule", "Target or system", "Observed measurement"],
 "data": [
  ["CCC(C)(CCN1CCC(F)CC1)N(Cc1cc2ccccc2n(C)c1=O)C(=O)C1CCCCC1 (racemic)", "MDR1 (ABCB1, P-glycoprotein) (Homo sapiens)", 33],
  ["CCC(C)(CCN1CCCCC1)N(Cc1cc2ccccc2n(C)c1=O)C(=O)C1CCCCC1 (racemic)", "MDR1 (ABCB1, P-glycoprotein) (Homo sapiens)", 28],
  ["CCC(C)(CCN1CCOCC1)N(Cc1cc2ccccc2n(C)c1=O)C(=O)C1CCCCC1 (racemic)", "MDR1 (ABCB1, P-glycoprotein) (Homo sapiens)", 18],
  ["Cn1c(=O)c(CN(C(=O)C2CCCCC2)C(C)(C)CCN2CCOCC2)cc2ccccc21", "MDR1 (ABCB1, P-glycoprotein) (Homo sapiens)", 23],
  ["Cn1c(=O)c(CN(C(=O)C2CCCCC2)C(C)(C)CCN2CCCCC2)cc2ccccc21", "MDR1 (ABCB1, P-glycoprotein) (Homo sapiens)", 25]
]}

Next up:
Query: So what Papp did CCC(C)(CCN1CCC(F)(F)CC1)N(Cc1cc2ccccc2n(C)c1=O)C(=O)C1CCCCC1 (racemic) get with MDR1 (ABCB1, P-glycoprotein) (Homo sapiens)?
Result: 25
